compound: Cc1cc(C(O)(COc2ccc(Cl)cc2)C(F)(F)F)ccc1NC(=O)c1cccc(I)c1C(=O)NC(C)C (stereo not given)
melting point: 90 to 95 °C
--
compound: CCOC(=O)c1cnn2c(-c3cccc(C)c3)ccnc12
melting point: 69 to 70 °C
--
compound: CC(C)(C)OC(=O)N1CCC(NC(=O)Nc2ccc(OC(F)(F)F)cc2)CC1
melting point: 160 to 162 °C
--
compound: CC(C)(C)OC(=O)N1CC=C(c2ccc(Br)cc2)CC1
melting point: 68 to 70 °C
--
compound: COCCOc1nc(N)nc(-c2ccccc2)c1-c1ccc(=O)n(C(C)C)n1
melting point: 128 to 130 °C
